Recorded growth for the following molecules
- Tested on: OVCAR-8 ovarian
- Test: NCI-60 one-dose screen, 48 h (100 = growth as untreated, 0 = no growth, -100 = all killed)
- Conditions: 10 µM unless noted
About 83,000 compounds went through this panel and 20% of them were active in at least one assay; those are over-represented in the sample as a whole.
Quick note: give the figure in %, leave out the unit.

Illustrative cases are given below, each with its answer.
[[record]]
smiles_repr = "FC(F)(F)c1cc(Nc2cccc(Oc3ccc(NC4=NCCN4)nc3)c2)ccc1Cl"
measured = 30.8

[[record]]
smiles_repr = "COc1ccccc1NC1=C(Cl)C(=O)c2nc(C)ccc2C1=O"
measured = 9.87

[[record]]
smiles_repr = "Cn1ccnc1C(=O)/C=C/c1ccc(CNC(=O)c2ccc(S(F)(F)(F)(F)F)cc2)cc1"
measured = 26.4

[[record]]
smiles_repr = "COc1ccccc1C(=O)Nc1cccc2c1C(=O)C(=O)C=C2"
measured = 102


Name the reported growth value associated with the molecule COc1ccc(/C(N)=N/C(N)=N/c2nc3ccccc3s2)cc1
97.3

Please report the recorded growth for COc1ccc(/C=C(/C)c2ccc3ccc(OC)cc3[o+]2)c(O)c1 .
80.5

Could you tell me which growth is on file for N#Cc1c(-c2cccs2)cc(-c2cnccn2)nc1SCC(=O)Nc1ccc(Br)cc1 ?
94.6

Data request, read-out growth, for CC1(C)CC[C@]23CC[C@]4(C)[C@H](CC[C@@H]5[C@@]6(C)CCCN(CO)C(C)(C)[C@@H]6CC[C@]54C)[C@H]2[C@H]1OC3
101

What growth value was documented for this molecule, CS(=O)(=O)Nc1cc(-c2ccc3ncc(C#N)c(NCc4cccc(F)c4)c3c2)cnc1Cl ?
7.95

====

- System: OVCAR-8 ovarian
- Test: NCI-60 one-dose screen, 48 h (100 = growth as untreated, 0 = no growth, -100 = all killed)
- Conditions: 10 µM unless noted
Compounds without any hit were thinned out: in the full panel of roughly 83,000, 20% have a hit.
Property label: growth (%)
The figure you give is taken to be in %; do not add the unit.

[[record]]
compound = "C[C@@H](Nc1ncnc2ccc(-c3cnc(Cl)c(NS(C)(=O)=O)c3)cc12)c1ccccc1"
tested_system = "OVCAR-8 ovarian"
property_label = "growth"
measured = 75.9

[[record]]
compound = "COc1ccc2c(c1)c(CC(=O)[Se]CC(=O)O)c(C)n2C(=O)c1ccc(Cl)cc1"
tested_system = "OVCAR-8 ovarian"
property_label = "growth"
measured = 101

[[record]]
compound = "O=C(CN1CCN(c2cc(=O)n(-c3ccccc3)c3ccccc23)CC1)Nc1nc(-c2ccccc2)cs1"
tested_system = "OVCAR-8 ovarian"
property_label = "growth"
measured = 69.8

[[record]]
compound = "Cc1cc(-c2ccc(Cl)cc2)n(Cc2nnc(SCC(=O)Nc3ccc(S(N)(=O)=O)cc3)n2-c2ccc([N+](=O)[O-])cc2)n1"
tested_system = "OVCAR-8 ovarian"
property_label = "growth"
measured = 88.7

[[record]]
compound = "Nc1nc(Nc2ccccc2SSc2ccccc2Nc2nc(N)nc(-c3ccccc3)n2)nc(-c2ccccc2)n1"
tested_system = "OVCAR-8 ovarian"
property_label = "growth"
measured = 73.9


Pending compound:
Bench note: what growth did C[C@@H]1C[C@H]2C(=O)O[C@@H](C)C(NC(=O)[C@H](Cc3cc(F)cc(F)c3)NC(=O)Nc3ccc(C4CC4)cc3F)C(=O)N3CCC[C@H]3C(=O)N3CCCC[C@H]3C(=O)N[C@@H](CO)C(=O)N2C1 (stereo partly specified) show?
20.9

====

- System: SK-MEL-28 melanoma
- Test: NCI-60 one-dose screen, 48 h
- Conditions: 10 µM unless noted
Compounds without any hit were thinned out: in the full panel of roughly 83,000, 20% have a hit. Calls of active or inactive are those of the source. Rule for the calls: active = growth percent below 10; inactive = the rest.
I would appreciate it if you answered using one of these outcomes: Y for active, N for inactive

The following molecules have reported results that may help.
[[record]]
molecule = "Nc1cc(F)ccc1NC(=O)c1ccc(NC(=O)C/C=C/c2cccnc2)cc1"
cat = "N"

[[record]]
molecule = "COc1ccc(Oc2ccc(/C=N/NC(=O)CSc3nc4ccccc4c(=O)n3-c3ccc(Cl)cc3)cc2)cc1"
cat = "N"

[[record]]
molecule = "O=S(=O)(NCCNc1nccc(-n2cnc3ccccc32)n1)c1ccc(Cl)cc1"
cat = "N"


Given Cc1ccc(-n2cc(/C=N/NC(=O)c3nc(N)n[nH]3)c(-c3ccc(S(C)(=O)=O)cc3)n2)cc1 , state the outcome it received in this test.
N

Which outcome did this test record for the molecule NC(=O)c1cccc(C#CCNC[C@H]2C[C@@H](n3ccc4c(Cl)ncnc43)[C@H](O)[C@@H]2O)c1 ?
N

// return assay outcome for CC(C)(O)c1cncc(-c2ccc3ncnc(NCc4ccccc4)c3c2)c1
N

Recorded call for CCCSc1nc(Nc2ccc(/C(C)=N\NC(N)=S)cc2)c(C#N)c(-c2ccccc2)n1 ?
N

Per the assay record, what outcome was assigned to CC(C)(C)c1ccc(-c2nnc(-c3nc4ccccc4nc3Cl)o2)cc1 ?
N

====

Reported growth values are given for each entry in this list.
- Tested on: OVCAR-4 ovarian
- Test: NCI-60 one-dose screen, 48 h (100 = growth as untreated, 0 = no growth, -100 = all killed)
- Conditions: 10 µM unless noted
The panel holds about 83,000 compounds, 20% with a hit somewhere; the sample as a whole holds those more often.
State the answer as a number, implicitly in %.

// below: answered compounds
[[record]]
compound = "O=C1CCC(N2C(=O)c3ccc(NS(=O)(=O)c4ccccc4OC(F)(F)F)cc3C2=O)C(=O)N1 (stereo not drawn)"
unit_annotation = "%"
measured = 22.8

[[record]]
compound = "NC(=O)c1c(NC(=O)c2ccc(F)cc2F)sc2c1CCC(=O)C2"
unit_annotation = "%"
measured = 27

[[record]]
compound = "C=CCn1c(SCC(=O)Nc2ccc(C(=O)/C=C/c3cccc([N+](=O)[O-])c3)cc2)nnc1-c1c[nH]c2ccccc12"
unit_annotation = "%"
measured = 74.9

[[record]]
compound = "O=C(Nc1nc2ccc([N+](=O)[O-])cc2s1)Nc1ccccc1Br"
unit_annotation = "%"
measured = 12.2

[[record]]
compound = "CC1(C)NCCC[C@]2(C)[C@H]3C/C(=N\\O)C4[C@@H]5C[C@@](C)(CO)CC[C@]5(C)CC[C@@]4(C)[C@]3(C)CC[C@@H]12 (stereo partly drawn)"
unit_annotation = "%"
measured = 99.4

[[record]]
compound = "NC(N)=Nc1ccc(Oc2cccc(Nc3ccc(Br)c(C(F)(F)F)c3)c2)cc1"
unit_annotation = "%"
measured = 39.8

[[record]]
compound = "C=CCn1c(-c2nc3ccc(C(=C(C#N)C#N)c4ccccc4)cc3[nH]2)cc2cc(Br)ccc21"
unit_annotation = "%"
measured = 54.5


Which growth value is on record for COc1cc(-c2nn(C(C)(C)C)cc2-c2ccnc(NCCCNS(=O)(=O)c3ccccc3)n2)ccc1Cl ?
57.6

====

- Test system: T-47D breast
- Test: NCI-60 one-dose screen, 48 h (100 = growth as untreated, 0 = no growth, -100 = all killed)
- Conditions: 10 µM unless noted
This is part of a sample that, as a whole, favours compounds with a hit. Of some 83,000 tested, about 20% had one in any assay.
Property label: growth (%)
Please reply with the bare figure in % and do not write the unit itself.

[[record]]
compound = "COc1cc(OC)cc(C(=O)Nc2cccc(C#Cc3cccc4[nH]nc(N)c34)c2)c1"
property_label = "growth"
measured = 31.2

[[record]]
compound = "CN1CCN(Cc2ccc(NC(=O)c3cncc(C#Cc4cnn5cccnc45)c3)cc2C(F)(F)F)CC1"
property_label = "growth"
measured = 54.2

[[record]]
compound = "COc1ccc(NCc2cn(-c3ccc(C(=O)O)cc3)nc2-c2cc(C(F)(F)F)cc(C(F)(F)F)c2)cc1"
property_label = "growth"
measured = 76.6

[[record]]
compound = "COc1ccc(Cn2cc3c(c2-c2cc(OC)c(OC)c(OC)c2)CCc2c(CN4CCOCC4)noc2-3)cc1"
property_label = "growth"
measured = 61.5

[[record]]
compound = "C#CCOC(=O)[C@@H]1CCCN1CC#C"
property_label = "growth"
measured = 92.6

[[record]]
compound = "CNC1CCc2c(sc(NC(=O)c3ccc(C(C)(C)C)cc3)c2C(N)=O)C1 (stereo not given)"
property_label = "growth"
measured = 53.6


Entry CCOc1ccc(NC2=C(Cl)C(=O)c3nc(C)ccc3C2=O)cc1 has what growth?
-43.8

Query (compound): O=S(=O)(NCCNc1nccc(-n2cnc3ccccc32)n1)c1ccc(C(F)(F)F)cc1 ; field requested: growth
22.3

// growth lookup, key: CCCn1cnc2c(c1=N)C(c1ccc(OC)cc1)c1sc3c(CC)cccc3c1O2 (stereo not given)
27.9

Which growth is reported for this compound? Fc1ccc(-c2cc3nc(C(Cl)Cl)nc(-c4ccc(F)cc4)n3n2)cc1
34.3
